*1 amine or outer side, *2 acyl side, *3 side chain or, on linkers, in order; H or OH if unused. Where a SMILES comes first, the peptide text is derived from it. Bridges are numbered along the chain shown (N, C = ends). [ ]: non-standard residue; d: D form. X4 = C#CCCCCN1C(=O)C([*:1])=C([*:2])C1=O; mXylylene = c1cc(C[*:1])cc(C[*:2])c1; oXylylene = c1ccc(C[*:2])c(C[*:1])c1; pXylylene = c1cc(C[*:2])ccc1C[*:1]; NMeR = CN[C@@H](CCCNC(=N)N)C(=O)O; Nle = CCCC[C@H](N)C(=O)O; X7 = C(C[*:1])C[*:2]
Parameter Ki, tested on Melanocyte-stimulating hormone receptor (Homo sapiens), listed per item.
Sequence (Q01726 whole entry): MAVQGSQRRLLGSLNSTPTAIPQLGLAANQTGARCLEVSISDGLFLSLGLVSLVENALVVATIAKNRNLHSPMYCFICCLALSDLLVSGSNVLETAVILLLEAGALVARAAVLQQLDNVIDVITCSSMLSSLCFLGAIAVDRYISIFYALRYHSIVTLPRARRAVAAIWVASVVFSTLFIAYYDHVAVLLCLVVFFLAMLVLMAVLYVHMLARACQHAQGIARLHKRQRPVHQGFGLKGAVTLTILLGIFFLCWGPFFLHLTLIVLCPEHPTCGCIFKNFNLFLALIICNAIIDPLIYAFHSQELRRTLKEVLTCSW
readout.label: Ki (nM)

1. CCCC[C@@H]1NC(=O)[C@@H]2CSSC[C@H](NC(=O)[C@H](CCCNC(=N)N)NC(=O)[C@H](CC(=O)O)NC(=O)[C@H](Cc3c[nH]c4ccccc34)NC(=O)[C@H](CCCNC(=N)N)NC(=O)[C@H](Cc3ccccc3)NC(=O)[C@H](Cc3cnc[nH]3)NC(=O)CNC1=O)C(=O)N[C@@H](Cc1cnc[nH]1)C(=O)N[C@@H](Cc1ccccc1)C(=O)N[C@@H](CCCNC(=N)N)C(=O)N[C@@H](Cc1c[nH]c3ccccc13)C(=O)N[C@@H](CCCNC(=N)N)C(=O)N2 (cyclo(CHFRWRC[Nle]GHFRWDR); disulfide 1-7)	3.31
2. CCCC[C@@H]1NC(=O)[C@@H]2CSCc3cccc(c3)CSC[C@H](NC(=O)[C@H](CCCNC(=N)N)NC(=O)[C@H](CC(=O)O)NC(=O)[C@H](Cc3c[nH]c4ccccc34)NC(=O)[C@H](CCCNC(=N)N)NC(=O)[C@H](Cc3ccccc3)NC(=O)[C@H](Cc3cnc[nH]3)NC(=O)CNC1=O)C(=O)N[C@@H](Cc1cnc[nH]1)C(=O)N[C@@H](Cc1ccccc1)C(=O)N[C@@H](CCCNC(=N)N)C(=O)N[C@@H](Cc1c[nH]c3ccccc13)C(=O)N[C@@H](CCCNC(=N)N)C(=O)N2 (cyclo(CHFRWRC[Nle]GHFRWDR); linker 1-7 via mXylylene)	0.407
3. CCCC[C@@H]1NC(=O)[C@@H]2CSCc3ccc(cc3)CSC[C@H](NC(=O)[C@H](CCCNC(=N)N)NC(=O)[C@H](CC(=O)O)NC(=O)[C@H](Cc3c[nH]c4ccccc34)NC(=O)[C@H](CCCNC(=N)N)NC(=O)[C@H](Cc3ccccc3)NC(=O)[C@H](Cc3cnc[nH]3)NC(=O)CNC1=O)C(=O)N[C@@H](Cc1cnc[nH]1)C(=O)N[C@@H](Cc1ccccc1)C(=O)N[C@@H](CCCNC(=N)N)C(=O)N[C@@H](Cc1c[nH]c3ccccc13)C(=O)N[C@@H](CCCNC(=N)N)C(=O)N2 (cyclo(CHFRWRC[Nle]GHFRWDR); linker 1-7 via pXylylene)	0.245
4. CC[C@H](C)[C@@H]1NC(=O)[C@@H]2CCCN2C(=O)[C@H](Cc2c[nH]c3ccccc23)NC(=O)[C@H](CCCNC(=N)N)N(C)C(=O)[C@H](Cc2ccccc2)NC(=O)[C@H](Cc2cnc[nH]2)NC(=O)[C@H]([C@@H](C)O)NC(=O)[C@@H](NC(C)=O)CSCc2cccc(c2)CSC[C@@H](C(N)=O)NC1=O (Ac-CTHF[NMeR]WPIC-NH2; linker 1-9 via mXylylene)	110
5. CC[C@H](C)[C@@H]1NC(=O)[C@@H]2CCCN2C(=O)[C@H](Cc2c[nH]c3ccccc23)NC(=O)[C@H](CCCNC(=N)N)N(C)C(=O)[C@H](Cc2ccccc2)NC(=O)[C@H](Cc2cnc[nH]2)NC(=O)[C@H]([C@@H](C)O)NC(=O)[C@@H](NC(C)=O)CSSC[C@@H](C(N)=O)NC1=O (Ac-CTHF[NMeR]WPIC-NH2; disulfide 1-9)	195
6. C#CCCCCN1C(=O)C2=C(SC[C@@H]3NC(=O)[C@H](CCCNC(=N)N)NC(=O)[C@H](CC(=O)O)NC(=O)[C@H](Cc4c[nH]c5ccccc45)NC(=O)[C@H](CCCNC(=N)N)NC(=O)[C@H](Cc4ccccc4)NC(=O)[C@H](Cc4cnc[nH]4)NC(=O)CNC(=O)[C@H](CCCC)NC(=O)[C@H](CS2)NC(=O)[C@H](CCCNC(=N)N)NC(=O)[C@H](Cc2c[nH]c4ccccc24)NC(=O)[C@H](CCCNC(=N)N)NC(=O)[C@H](Cc2ccccc2)NC(=O)[C@H](Cc2cnc[nH]2)NC3=O)C1=O (cyclo(CHFRWRC[Nle]GHFRWDR); linker 1-7 via X4)	1.78
7. CCCC[C@@H]1NC(=O)[C@@H]2CSCCCSC[C@H](NC(=O)[C@H](CCCNC(=N)N)NC(=O)[C@H](CC(=O)O)NC(=O)[C@H](Cc3c[nH]c4ccccc34)NC(=O)[C@H](CCCNC(=N)N)NC(=O)[C@H](Cc3ccccc3)NC(=O)[C@H](Cc3cnc[nH]3)NC(=O)CNC1=O)C(=O)N[C@@H](Cc1cnc[nH]1)C(=O)N[C@@H](Cc1ccccc1)C(=O)N[C@@H](CCCNC(=N)N)C(=O)N[C@@H](Cc1c[nH]c3ccccc13)C(=O)N[C@@H](CCCNC(=N)N)C(=O)N2 (cyclo(CHFRWRC[Nle]GHFRWDR); linker 1-7 via X7)	1.32
8. CCCC[C@@H]1NC(=O)[C@@H]2CSCc3ccccc3CSC[C@H](NC(=O)[C@H](CCCNC(=N)N)NC(=O)[C@H](CC(=O)O)NC(=O)[C@H](Cc3c[nH]c4ccccc34)NC(=O)[C@H](CCCNC(=N)N)NC(=O)[C@H](Cc3ccccc3)NC(=O)[C@H](Cc3cnc[nH]3)NC(=O)CNC1=O)C(=O)N[C@@H](Cc1cnc[nH]1)C(=O)N[C@@H](Cc1ccccc1)C(=O)N[C@@H](CCCNC(=N)N)C(=O)N[C@@H](Cc1c[nH]c3ccccc13)C(=O)N[C@@H](CCCNC(=N)N)C(=O)N2 (cyclo(CHFRWRC[Nle]GHFRWDR); linker 1-7 via oXylylene)	1.58
